The compounds listed here are annotated with their melting point.

Study these solved cases before continuing.
>>> val("S=C(c1cc2n(c1)Cc1ccccc1-n1ccnc1-2)N1CCOCC1")
"210 to 211 °C"
>>> val("NCCc1ccc(-n2cnc3cnc4ccc(Cl)cc4c32)cc1")
"140 to 141 °C"
>>> val("O=c1c(Cl)c(Cl)cnn1CC=Cc1ccccc1")
"98 to 99 °C"

Qu. Give its melting point value. Item: O=[N+]([O-])c1ccc(O)c(CSCC(O)CO)c1 (stereo unspecified)
Ans. 130 °C

Qu. Give its melting point value. Item: COc1ccc(Cn2c(=O)c3ccccc3n(CCCCCCl)c2=O)cc1
Ans. 110 to 111 °C

Qu. Give its melting point value. Item: COc1ccc(N(C)CCN(C)CCCN2CCc3cc(OC)c(OC)cc3NC2=O)cc1OC
Ans. 117 to 119 °C

Qu. Give its melting point value. Item: COc1cc(Br)cc(C23CC4CC(CC(C4)C2)C3)c1OCc1ccccc1
Ans. 89 to 91 °C

----------
result_type: melting point

Study these solved cases before continuing.
>>> val("CC(C)C(C(=O)O)c1ccc(O)c([N+](=O)[O-])c1 (stereo unspecified)")
"103 to 105 °C"
>>> val("O=C(CCl)Nc1ccc(NC(=O)CCl)c2c1C(=O)c1ccccc1C2=O")
"221 °C"
>>> val("CC(C)OC(=O)Cn1c(=O)n(C)c(=O)n(-c2cc(N=c3sc(=O)n4n3CCC=C4)c(F)cc2Cl)c1=O")
"99 to 111 °C"
>>> val("CC(Cc1ccccc1)C1CC=C2C3=C(CCC21C)C1(C)CCC(O)C(C)(C)C1CC3 (stereo unspecified)")
"179 to 186 °C"
>>> val("COC(=O)CCc1ccc(Oc2ccc(-c3ccc(C(=N)N)cc3)nn2)cc1")
"178 to 181 °C"
>>> val("Cc1nc2cc3c4c(cccc4c2[nH]1)C(=O)N(O)C3=O")
"> 330 °C"
>>> val("NS(=O)(=O)c1ccc(CCNC(=O)c2nc(-c3ccccc3)no2)cc1")
"217 to 218 °C"
>>> val("CC(C)CCC1(C(F)(F)F)NC(=O)Nc2ccc(F)cc21 (racemic)")
"179 °C"
>>> val("CS(=O)(=O)N(N)C(=O)c1cc([N+](=O)[O-])c(C(F)(F)F)cc1N")
"221 to 227 °C"
>>> val("CCc1nnc(Cc2ccc(NC(=O)/C=C/c3cnn(C)c3-c3ccc(F)cc3)cc2)o1")
"164 to 165 °C"

Qu. Give its melting point value. Item: CCOC(=O)c1ccc(CCC=O)cc1
Ans. 109 °C

Qu. Give its melting point value. Item: CC(C)=CC(=O)N1CC(c2ccccc2)c2ccccc21 (stereo unspecified)
Ans. 97 to 98 °C

Qu. Give its melting point value. Item: C=CCC1(C(C)(C)C(=O)OCC)C(=O)NC(=O)NC1=O
Ans. 112 to 114 °C

Qu. Give its melting point value. Item: N#CCCNC(=O)c1cccc(-c2ccc3c(c2)N(c2ccc(Cl)c(Cl)c2)CC3)c1
Ans. 166 to 196 °C

Qu. Give its melting point value. Item: COP(=O)(CC(=O)[C@H](Cc1ccccc1)NC(=O)OC(C)(C)C)OC
Ans. 76 to 78 °C

Qu. Give its melting point value. Item: NCCNC(=S)Nc1c(Cl)cccc1Cl
Ans. 136 to 138 °C

Qu. Give its melting point value. Item: CNC(=NC#N)NCCSc1nccc(NC(N)=NCC(F)(F)F)n1
Ans. 218 to 221 °C

Qu. Give its melting point value. Item: CC1Nc2ccccc2N2CCc3cccc1c32 (stereo unspecified)
Ans. 127 to 134 °C

Qu. Give its melting point value. Item: Clc1ccc(-c2cnn3cnnc3n2)cc1
Ans. > 300 °C

Qu. Give its melting point value. Item: Brc1ccc(C#Cc2c3ccccc3c(C#Cc3ccc(Br)cc3)c3ccccc23)cc1
Ans. 305 °C

Qu. Give its melting point value. Item: CCC(C)NC(=O)n1c(=O)nc(N2CCOCC2)n1C (stereo unspecified)
Ans. 147 °C

Taken from a melting point compilation (Tetko et al.; mined from patent text by program, amines drawn as free bases though some values may be those of a salt).
